Biological target: T1, corticotropin-releasing hormone (CRH) peptide (human and mouse, UniProt P01143 145-185 (rat entry), not fully specified)
T1 peptide: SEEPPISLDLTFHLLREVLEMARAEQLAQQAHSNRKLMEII
Assay: cell-based or functional assay
Exercise: state measured hCRHR1-Luc 0.5 nM CRH IC50 for each of the binders provided.
Could you give the number and then its unit, please?

Need hCRHR1-Luc 0.5 nM CRH IC50, item PR302341-10 (antibody, human IgG1, kappa, V domains shown) VH: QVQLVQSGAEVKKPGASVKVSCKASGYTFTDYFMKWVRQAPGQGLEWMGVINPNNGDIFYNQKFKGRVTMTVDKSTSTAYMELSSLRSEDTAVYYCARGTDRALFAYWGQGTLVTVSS VL: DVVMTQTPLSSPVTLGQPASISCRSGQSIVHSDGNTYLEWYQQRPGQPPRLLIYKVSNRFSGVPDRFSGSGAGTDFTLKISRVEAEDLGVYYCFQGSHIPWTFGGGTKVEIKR
0.11 nM

Next binder up: PR302341-13 (antibody, human IgG1, kappa, V domains shown) VH: QVQLVQSGAEVKKPGASVKVSCKASGYTFTDYFMKWVRQAPGQGLEWMGVINPNNGDIFYNQKFKGRVTMTRDTSTSTVYMELSSLRSEDTAVYYCARGTDRALFAYWGQGTLVTVSS VL: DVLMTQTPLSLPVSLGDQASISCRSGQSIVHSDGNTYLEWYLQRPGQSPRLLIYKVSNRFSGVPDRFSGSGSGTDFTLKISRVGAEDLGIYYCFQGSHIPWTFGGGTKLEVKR
0.124 nM
